measurement.protocol: Probe fluorescence ratio response to linolenic acid relative to ADIFAB2
Type: binding
condition.description: response relative to ADIFAB2
readout.kind: DR/DR LNA
# answer = number (no unit)

49M, 72A (protein, listed as Rattus norvegicus, PEPTIDE (1)...(131) wild-type rat intestinal fatty acid binding protein) AFDGTWKVDRNENYEKFMEKMGINVVKRKLGAHDNLKLTITQEGNKFTMKESSNFRNIDVVFELGVDFAYSAADGTELTGTWTMEGNKLVGKFKRVDNGKELIAVREISGNELIQTYTYEGVEAKRIFKKE: 1.369

Turning now to a further record.
Query: Returns the measured DR/DR LNA for the input molecule. Input: 72M (protein, listed as Rattus norvegicus, PEPTIDE (1)...(131) wild-type rat intestinal fatty acid binding protein) AFDGTWKVDRNENYEKFMEKMGINVVKRKLGAHDNLKLTITQEGNKFTVKESSNFRNIDVVFELGVDFAYSMADGTELTGTWTMEGNKLVGKFKRVDNGKELIAVREISGNELIQTYTYEGVEAKRIFKKE
Response: 1.35
